- study system: Somatostatin receptor type 2 (Homo sapiens)
- Sequence (P30874 whole entry): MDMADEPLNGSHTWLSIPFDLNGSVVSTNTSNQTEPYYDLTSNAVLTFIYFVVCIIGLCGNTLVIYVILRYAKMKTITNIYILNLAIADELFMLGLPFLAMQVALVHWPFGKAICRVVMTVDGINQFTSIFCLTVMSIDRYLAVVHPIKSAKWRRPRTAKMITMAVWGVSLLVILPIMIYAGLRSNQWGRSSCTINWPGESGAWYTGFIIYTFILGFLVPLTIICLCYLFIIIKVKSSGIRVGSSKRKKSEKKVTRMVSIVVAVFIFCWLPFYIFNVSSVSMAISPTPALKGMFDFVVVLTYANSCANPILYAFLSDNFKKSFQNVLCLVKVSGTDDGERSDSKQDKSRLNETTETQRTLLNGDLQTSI
- method summary: Inhibitory concentration against human somatostatin receptor type 2 in CC531 cells
pIC50: −log10 of the molar value.
assay endpoint: pIC50

# smiles input, experimental value
data = [
    ("CC(C)[C@@H]1NC(=O)[C@H](CCCCN)NC(=O)[C@@H](Cc2c[nH]c3ccccc23)NC(=O)[C@H](Cc2ccc(O)cc2)NC(=O)[C@@H](NC(=O)[C@H](N)Cc2ccc(N)cc2)CSSC[C@@H](C(=O)N[C@H](C(N)=O)[C@@H](C)O)NC1=O", 8.80),
]

(I) CC(C)[C@@H]1NC(=O)[C@H](CCCCN)NC(=O)[C@@H](Cc2c[nH]c3ccccc23)NC(=O)[C@H](Cc2ccc(O)cc2)NC(=O)[C@@H](NC(=O)[C@H](N)Cc2ccc(N)c(I)c2)CSSC[C@@H](C(=O)N[C@@H](CC(=O)O)C(N)=O)NC1=O
(II) CC(C)[C@@H]1NC(=O)[C@H](CCCCN)NC(=O)[C@@H](Cc2c[nH]c3ccccc23)NC(=O)[C@H](Cc2ccc(O)c(I)c2)NC(=O)[C@@H](NC(=O)[C@H](N)Cc2ccc(N)c(I)c2)CSSC[C@@H](C(=O)N[C@H](C(N)=O)[C@@H](C)O)NC1=O
QUERY: Rank I against II by their pIC50 values and give the higher one. State the label of the item chosen.
RESULT: II

(a) CC(C)[C@@H]1NC(=O)[C@H](CCCCN)NC(=O)[C@@H](Cc2c[nH]c3ccccc23)NC(=O)[C@H](Cc2ccc(O)cc2)NC(=O)[C@@H](NC(=O)[C@H](N)Cc2ccccc2)CSSC[C@@H](C(=O)N[C@@H](CC(=O)O)C(N)=O)NC1=O
(b) CC(C)[C@@H]1NC(=O)[C@H](CCCCN)NC(=O)[C@@H](Cc2c[nH]c3ccccc23)NC(=O)[C@H](Cc2ccc(O)c(I)c2)NC(=O)[C@@H](NC(=O)[C@H](N)Cc2ccc(N)c(I)c2)CSSC[C@@H](C(=O)N[C@@H](CC(=O)O)C(N)=O)NC1=O
(c) CC(C)[C@@H]1NC(=O)[C@H](CCCCN)NC(=O)[C@@H](Cc2c[nH]c3ccccc23)NC(=O)[C@H](Cc2ccc(O)cc2)NC(=O)[C@@H](NC(=O)[C@H](N)Cc2ccc(N)cc2)CSSC[C@@H](C(=O)N[C@@H](CC(=O)O)C(N)=O)NC1=O
QUERY: Task for the reader: rank each entry by its pIC50, from the minimum upward. Sort the labels as requested; that list is your answer.
RESULT: a, c, b

(a) CC(C)[C@@H]1NC(=O)[C@H](CCCCN)NC(=O)[C@@H](Cc2c[nH]c3ccccc23)NC(=O)[C@H](Cc2ccc(O)cc2)NC(=O)[C@@H](NC(=O)[C@H](N)Cc2ccc(N)cc2)CSSC[C@@H](C(=O)N[C@@H](C(N)=O)[C@H](C)O)NC1=O
(b) CC(C)[C@@H]1NC(=O)[C@H](CCCCN)NC(=O)[C@@H](Cc2c[nH]c3ccccc23)NC(=O)[C@H](Cc2ccc(O)cc2)NC(=O)[C@@H](NC(=O)[C@H](N)Cc2ccc(N)cc2)CSSC[C@@H](C(=O)N[C@H](CC(=O)O)C(N)=O)NC1=O
(c) CC(C)[C@@H]1NC(=O)[C@H](CCCCN)NC(=O)[C@@H](Cc2c[nH]c3ccccc23)NC(=O)[C@H](Cc2ccc(O)c(I)c2)NC(=O)[C@@H](NC(=O)[C@H](N)Cc2ccc(N)cc2)CSSC[C@@H](C(=O)N[C@H](C(N)=O)[C@@H](C)O)NC1=O
QUERY: Please rank these compounds by pIC50 in descending order. Sort the labels as requested; that list is your answer.
RESULT: b, c, a
(b: 8.96, c: 8.21, a: 7.77)

Just for reference, ChEMBL document CHEMBL1140448 is where these values come from.
